Would you mind telling me the reported recombinant barcode read abundance (log10) of each entry?
protocol_details: recombinant barcode read abundance after kanamycin selection (control-corrected) (log10(CPM+1)); higher = more efficient recombination; sequences stand for … in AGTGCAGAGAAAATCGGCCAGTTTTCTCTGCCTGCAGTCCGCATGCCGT…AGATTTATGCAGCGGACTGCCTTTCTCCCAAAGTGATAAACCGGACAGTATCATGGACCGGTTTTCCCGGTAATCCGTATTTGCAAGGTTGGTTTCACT; site = the 11-nt target;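 also: IS621 recombinase and bridge RNA in Escherichia coli cells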
Give bare numbers.

For orientation, consider the following solved cases.
[[record]]
sequence_chain = "AGGAACCCTTGGGTTCTAACCTGTTGCTT (site AGGAACCCTTA)"
assay_result = 0.256

[[record]]
sequence_chain = "GATTATTCTTGGGTTCTAACCTGTTGCCT (site GAATATTCTAG)"
assay_result = 0.0621

[[record]]
sequence_chain = "CATTATCCTTGGGTTCTAACCTGTTGCCT (site CATTATCCTAG)"
assay_result = 0.136

[[record]]
sequence_chain = "TAAGATGCTTGGGTTCTAACCTGTTGCGG (site GCGACATCTAG)"
assay_result = 0.0149


Okay, now this sequence:
Short answer for CTACAACCTTGGGTTCTAACCTGTTGCAG (site TGGACTACTGA) : recombinant barcode read abundance (log10) was 0.25
